B1: ZNF24 (parent)
chain: THTKEQILELVVLEQFVAILPKEL

- Variants of: B1
- ASSAY_COMMENT: protein stability index of a GFP-peptide fusion (GPS, HEK-293T) (PSI 1-6); higher = more stable;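 note: lentivirally expressed fusions sorted by FACS into six bins by GFP to DsRed ratio, PSI derived from sequencing read proportions per bin multiplied by bin number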
- MEASUREMENT_PARAMETERS: c terminus: a fixed tail appended
Assign class by protein stability index: not lower than 2 means met; lower than 2 means not met.

Task: Kindly determine if protein stability index recorded for THTKEQILELVVLEQFVARLPKEL [I19R] is above or exactly 2.
Result: met

Task: Kindly determine if protein stability index recorded for THTKEQILELVVLEQFVAILPKEP [L24P] is above or exactly 2.
Result: met

Task: Kindly determine if protein stability index recorded for THTKEQNLELVVLEQFVAILPKEL [I7N] is above or exactly 2.
Result: not met

Task: Kindly determine if protein stability index recorded for THTKEQILELVVLELFVAILPKEL [Q15L] is above or exactly 2.
Result: met

Task: Kindly determine if protein stability index recorded for THTKEQILELVVLEQFVWILPKEL [A18W] is above or exactly 2.
Result: met

Task: Kindly determine if protein stability index recorded for THTKEQILFLVVLEQFVAILPKEL [E9F] is above or exactly 2.
Result: met

Task: Kindly determine if protein stability index recorded for THTKEQILNLVVLEQFVAILPKEL [E9N] is above or exactly 2.
Result: met

Task: Kindly determine if protein stability index recorded for THTKEQILELCVLEQFVAILPKEL [V11C] is above or exactly 2.
Result: met

Task: Kindly determine if protein stability index recorded for THTKEQILELVVEEQFVAILPKEL [L13E] is above or exactly 2.
Result: not met

Task: Kindly determine if protein stability index recorded for THTKEQILELVVLEQFVAILPKEV [L24V] is above or exactly 2.
Result: met

Task: Kindly determine if protein stability index recorded for THTKEQIPELVVLEQFVAILPKEL [L8P] is above or exactly 2.
Result: met

Task: Kindly determine if protein stability index recorded for THTKEFILELVVLEQFVAILPKEL [Q6F] is above or exactly 2.
Result: met

Task: Kindly determine if protein stability index recorded for THTKEQILELVVLEQFVAILPVEL [K22V] is above or exactly 2.
Result: met

Task: Kindly determine if protein stability index recorded for THTKEQILELVVLMQFVAILPKEL [E14M] is above or exactly 2.
Result: met

Task: Kindly determine if protein stability index recorded for THTKEQILELVVLEQAVAILPKEL [F16A] is above or exactly 2.
Result: not met

Task: Kindly determine if protein stability index recorded for THTKEQIHELVVLEQFVAILPKEL [L8H] is above or exactly 2.
Result: met

Task: Kindly determine if protein stability index recorded for THTKEQILELVVLEQFVKILPKEL [A18K] is above or exactly 2.
Result: met

Task: Kindly determine if protein stability index recorded for THTKEQILDLVVLEQFVAILPKEL [E9D] is above or exactly 2.
Result: met

Task: Kindly determine if protein stability index recorded for THTKEQILELVVLEQFVAELPKEL [I19E] is above or exactly 2.
Result: met

Task: Kindly determine if protein stability index recorded for THTKEQILELVVLEQFVMILPKEL [A18M] is above or exactly 2.
Result: not met

Task: Kindly determine if protein stability index recorded for THTKEQKLELVVLEQFVAILPKEL [I7K] is above or exactly 2.
Result: not met

Task: Kindly determine if protein stability index recorded for THTKEQILELVVLEQFVAIVPKEL [L20V] is above or exactly 2.
Result: met

Task: Kindly determine if protein stability index recorded for THTKEQILELVVLEQFVAILPKEY [L24Y] is above or exactly 2.
Result: met

Task: Kindly determine if protein stability index recorded for THTKEQITELVVLEQFVAILPKEL [L8T] is above or exactly 2.
Result: not met

Task: Kindly determine if protein stability index recorded for THTKEQILELVYLEQFVAILPKEL [V12Y] is above or exactly 2.
Result: met

Task: Kindly determine if protein stability index recorded for THTKEQVLELVVLEQFVAILPKEL [I7V] is above or exactly 2.
Result: not met

Task: Kindly determine if protein stability index recorded for THTKEQILELVVLEQFVAILPTEL [K22T] is above or exactly 2.
Result: met

Task: Kindly determine if protein stability index recorded for THTKEQILELVVLEQPVAILPKEL [F16P] is above or exactly 2.
Result: not met

Task: Kindly determine if protein stability index recorded for THTKEQILELVVLEQTVAILPKEL [F16T] is above or exactly 2.
Result: not met

Task: Kindly determine if protein stability index recorded for THTKEQILELVVLEQFVAILWKEL [P21W] is above or exactly 2.
Result: met

Task: Kindly determine if protein stability index recorded for THTKEQILELVVLEEFVAILPKEL [Q15E] is above or exactly 2.
Result: met

Task: Kindly determine if protein stability index recorded for THTKEQILELVVLEQFVAILPYEL [K22Y] is above or exactly 2.
Result: met

Task: Kindly determine if protein stability index recorded for THTKEQILELVVLEQFSAILPKEL [V17S] is above or exactly 2.
Result: met
